Value source: paper PMC467089

- Tested on: CCRF-CEM lymphoblasts
- test.method.notes: BrU incorporation analysis (RNA synthesis)
- Assay type: cell-based, human
- test.settings: 5×IC50, 24 h
- Procedure: To further characterise the mode of action of studied compounds, we analysed the cell cycle profile of CCRF-CEM cells treated with compounds for 24 h. […] The compounds ED1–ED9 and ED12 induced arrest in G2/M phase of the cell cycle (Figure 2(A)). […] Prior to the trypsinisation, cells were treated with 1 mM BrU for 30 min. […] The percentage of BrU positive cells was quantified using CellQuest software.
Quick reference: BrU, % of positive cells of the listed items.
API: value field is a number in %; no unit string.

Query :: Provide measured BrU, % of positive cells value, entry: CC(=O)Oc1cc(Cn2cc([C@]3(O)CC[C@H]4[C@@H]5CCc6cc(O)ccc6[C@H]5CC[C@@]43C)nn2)cc(Cn2cc([C@]3(O)CC[C@H]4[C@@H]5CCc6cc(O)ccc6[C@H]5CC[C@@]43C)nn2)c1
Result :: 3.26

Query :: Name the recorded BrU, % of positive cells of the item C[C@]12CC[C@@H]3c4ccc(O)cc4CC[C@H]3[C@@H]1CC[C@@]2(O)c1cn(Cc2cc(O)cc(Cn3cc([C@]4(O)CC[C@H]5[C@@H]6CCc7cc(O)ccc7[C@H]6CC[C@@]54C)nn3)c2)nn1 in your answer.
Result :: 41.82

Query :: Quote BrU, % of positive cells reported for C[C@]12CC[C@@H]3c4ccc(O)cc4CC[C@H]3[C@@H]1CC[C@@]2(O)c1cn(Cc2cccc(Cn3cc([C@]4(O)CC[C@H]5[C@@H]6CCc7cc(O)ccc7[C@H]6CC[C@@]54C)nn3)c2)nn1 please.
Result :: 31.42

Query :: Supply BrU, % of positive cells value. Item: C[C@]12CC[C@@H]3c4ccc(O)cc4CC[C@H]3[C@@H]1CC[C@@]2(O)c1cn(Cc2ccc(O)c(Cn3cc([C@]4(O)CC[C@H]5[C@@H]6CCc7cc(O)ccc7[C@H]6CC[C@@]54C)nn3)n2)nn1
Result :: 8.14

Query :: Give BrU, % of positive cells for the following compound: C[C@]12CC[C@@H]3c4ccc(O)cc4CC[C@H]3[C@@H]1CC[C@@]2(O)c1cn(Cc2cc(Cn3cc([C@]4(O)CC[C@H]5[C@@H]6CCc7cc(O)ccc7[C@H]6CC[C@@]54C)nn3)cc(OCCO)c2)nn1
Result :: 66.40

---

- Test system: K562 (chronic myelogenous leukaemia)
- test.method.notes: MTS cytotoxicity assay, K562
- Assay type: cell-based
- test.settings: Homo sapiens, K562; MTS assay, 72-h incubation, mean ± SD of 3 independent experiments; read-out: IC50 cytotoxic activity K562
Rule for this label: Yes means IC50 is less than 400 nM; No means IC50 is at least 400 nM.

C#C[C@]1(O)CC[C@H]2[C@@H]3CCc4cc(O)ccc4[C@H]3CC[C@@]21C [EE, 17α-ethinylestradiol, reference compound]; No

Query :: Please check: IC50 for C[C@]12CC[C@@H]3c4ccc(O)cc4CC[C@H]3[C@@H]1CC[C@@]2(O)c1cn(Cc2cccc(Cn3cc([C@]4(O)CC[C@H]5[C@@H]6CCc7cc(O)ccc7[C@H]6CC[C@@]54C)nn3)n2)nn1 [ED, reference compound] , strictly under 400 nM or not?
Result :: No

Query :: Lab note: confirm whether the reported IC50 for this compound is below 400 nM, equality not counting. compound: COc1cc(Cn2cc([C@]3(O)CC[C@H]4[C@@H]5CCc6cc(O)ccc6[C@H]5CC[C@@]43C)nn2)cc(Cn2cc([C@]3(O)CC[C@H]4[C@@H]5CCc6cc(O)ccc6[C@H]5CC[C@@]43C)nn2)c1 [ED3]
Result :: Yes

Query :: Please check: IC50 for COc1cc2c(cc1O)CC[C@@H]1[C@@H]2CC[C@]2(C)[C@@H](O)CC[C@@H]12 [ME, 2-methoxyestradiol, reference compound] , strictly under 400 nM or not?
Result :: No

Query :: # strict comparison: is reported IC50 < 400 nM? input = C[C@]12CC[C@@H]3c4ccc(O)cc4CC[C@H]3[C@@H]1CC[C@@]2(O)c1cn(Cc2cc(Cn3cc([C@]4(O)CC[C@H]5[C@@H]6CCc7cc(O)ccc7[C@H]6CC[C@@]54C)nn3)cc(OCCO)c2)nn1 [ED5]
Result :: No

---

- test.method.notes: MTS cytotoxicity assay, BJ
- Type: cell-based
- test.settings: human; MTS assay, 72-h incubation, mean ± SD of 3 independent experiments; read-out: IC50 cytotoxic activity BJ
measured.endpoint: IC50 at 72 h

Query :: Identify the reported IC50 at 72 h for the following entry. COc1cc2c(c(OC)c1OC)-c1ccc(OC)c(=O)cc1[C@@H](NC(C)=O)CC2 [Colchicine, reference compound]
Result :: > 50 µM

---

Catalogue of molecules with associated IC50 at 72 h
- test.method.notes: MTS cytotoxicity assay, BJ
- Assay type: cell-based
- test.settings: human

Example entries and their recorded answers appear below.
CC(=O)Oc1c(Cn2cc([C@]3(O)CC[C@H]4[C@@H]5CCc6cc(O)ccc6[C@H]5CC[C@@]43C)nn2)cc(C)cc1Cn1cc([C@]2(O)CC[C@H]3[C@@H]4CCc5cc(O)ccc5[C@H]4CC[C@@]32C)nn1; > 50 µM
Cc1cc(C)c(Cn2cc([C@]3(O)CC[C@H]4[C@@H]5CCc6cc(O)ccc6[C@H]5CC[C@@]43C)nn2)cc1Cn1cc([C@]2(O)CC[C@H]3[C@@H]4CCc5cc(O)ccc5[C@H]4CC[C@@]32C)nn1; > 50 µM
C[C@]12CC[C@@H]3c4ccc(O)cc4CC[C@H]3[C@@H]1CC[C@@]2(O)c1cn(Cc2cc(O)cc(Cn3cc([C@]4(O)CC[C@H]5[C@@H]6CCc7cc(O)ccc7[C@H]6CC[C@@]54C)nn3)c2)nn1; > 50 µM
C[C@]12CC[C@@H]3c4ccc(O)cc4CC[C@H]3[C@@H]1CC[C@@]2(O)c1cn(Cc2ccc(O)c(Cn3cc([C@]4(O)CC[C@H]5[C@@H]6CCc7cc(O)ccc7[C@H]6CC[C@@]54C)nn3)n2)nn1; 11.3 µM

Here is the next item to consider.
Query :: Specify reported IC50 at 72 h for the molecule shown: COc1c(Cn2cc([C@]3(O)CC[C@H]4[C@@H]5CCc6cc(O)ccc6[C@H]5CC[C@@]43C)nn2)cc(C)cc1Cn1cc([C@]2(O)CC[C@H]3[C@@H]4CCc5cc(O)ccc5[C@H]4CC[C@@]32C)nn1
Result :: > 50 µM

---

- Test system: CCRF-CEM lymphoblasts
- test.method.notes: BrU incorporation analysis (RNA synthesis)
- Type: cell-based, human
- test.settings: 1×IC50, 24 h
- Description: To further characterise the mode of action of studied compounds, we analysed the cell cycle profile of CCRF-CEM cells treated with compounds for 24 h. […] The compounds ED1–ED9 and ED12 induced arrest in G2/M phase of the cell cycle (Figure 2(A)). […] Prior to the trypsinisation, cells were treated with 1 mM BrU for 30 min. […] The percentage of BrU positive cells was quantified using CellQuest software.
We use 50% as the dividing line for BrU, % of positive cells: on or above the line is class 1, below is class 0.

Consider the worked cases shown below.
Cc1cc(Cn2cc([C@]3(O)CC[C@H]4[C@@H]5CCc6cc(O)ccc6[C@H]5CC[C@@]43C)nn2)c(O)c(Cn2cc([C@]3(O)CC[C@H]4[C@@H]5CCc6cc(O)ccc6[C@H]5CC[C@@]43C)nn2)c1; class 1
CC(=O)Oc1cc(Cn2cc([C@]3(O)CC[C@H]4[C@@H]5CCc6cc(O)ccc6[C@H]5CC[C@@]43C)nn2)cc(Cn2cc([C@]3(O)CC[C@H]4[C@@H]5CCc6cc(O)ccc6[C@H]5CC[C@@]43C)nn2)c1; class 1
Cc1cc(C)c(Cn2cc([C@]3(O)CC[C@H]4[C@@H]5CCc6cc(O)ccc6[C@H]5CC[C@@]43C)nn2)cc1Cn1cc([C@]2(O)CC[C@H]3[C@@H]4CCc5cc(O)ccc5[C@H]4CC[C@@]32C)nn1; class 0
C[C@]12CC[C@@H]3c4ccc(O)cc4CC[C@H]3[C@@H]1CC[C@@]2(O)c1cn(Cc2cc(Cn3cc([C@]4(O)CC[C@H]5[C@@H]6CCc7cc(O)ccc7[C@H]6CC[C@@]54C)nn3)cc(OCCO)c2)nn1; class 1
C[C@]12CC[C@@H]3c4ccc(O)cc4CC[C@H]3[C@@H]1CC[C@@]2(O)c1cn(Cc2cccc(Cn3cc([C@]4(O)CC[C@H]5[C@@H]6CCc7cc(O)ccc7[C@H]6CC[C@@]54C)nn3)c2)nn1; class 0

Query :: Dear colleague, could you confirm whether COc1cc2c(cc1O)CC[C@@H]1[C@@H]2CC[C@]2(C)[C@@H](O)CC[C@@H]12 [ME, 2-methoxyestradiol, reference compound] has BrU, % of positive cells at or above 50%?
Result :: class 0

Query :: Reported BrU, % of positive cells at or above 50%? COc1cc(Cn2cc([C@]3(O)CC[C@H]4[C@@H]5CCc6cc(O)ccc6[C@H]5CC[C@@]43C)nn2)cc(Cn2cc([C@]3(O)CC[C@H]4[C@@H]5CCc6cc(O)ccc6[C@H]5CC[C@@]43C)nn2)c1
Result :: class 1

Query :: Determine whether measured BrU, % of positive cells meets or exceeds 50% for COc1c(Cn2cc([C@]3(O)CC[C@H]4[C@@H]5CCc6cc(O)ccc6[C@H]5CC[C@@]43C)nn2)cc(C)cc1Cn1cc([C@]2(O)CC[C@H]3[C@@H]4CCc5cc(O)ccc5[C@H]4CC[C@@]32C)nn1
Result :: class 1

Query :: Exam item: decide whether the reported BrU, % of positive cells for CC(=O)Oc1c(Cn2cc([C@]3(O)CC[C@H]4[C@@H]5CCc6cc(O)ccc6[C@H]5CC[C@@]43C)nn2)cc(C)cc1Cn1cc([C@]2(O)CC[C@H]3[C@@H]4CCc5cc(O)ccc5[C@H]4CC[C@@]32C)nn1 is at least 50%.
Result :: class 1

Query :: Quick check: does C[C@]12CC[C@@H]3c4ccc(O)cc4CC[C@H]3[C@@H]1CC[C@@]2(O)c1cn(Cc2cc(O)cc(Cn3cc([C@]4(O)CC[C@H]5[C@@H]6CCc7cc(O)ccc7[C@H]6CC[C@@]54C)nn3)c2)nn1 have BrU, % of positive cells greater than or equal to 50%?
Result :: class 0

Query :: Does the compound C[C@]12CC[C@@H]3c4ccc(O)cc4CC[C@H]3[C@@H]1CC[C@@]2(O)c1cn(Cc2ccc(O)c(Cn3cc([C@]4(O)CC[C@H]5[C@@H]6CCc7cc(O)ccc7[C@H]6CC[C@@]54C)nn3)n2)nn1 have recorded BrU, % of positive cells that is 50% or more?
Result :: class 0

Query :: Has C[C@]12CC[C@@H]3c4ccc(O)cc4CC[C@H]3[C@@H]1CC[C@@]2(O)c1cn(Cc2cccc(Cn3cc([C@]4(O)CC[C@H]5[C@@H]6CCc7cc(O)ccc7[C@H]6CC[C@@]54C)nn3)n2)nn1 [ED, reference compound] a recorded BrU, % of positive cells greater than or equal to 50%?
Result :: class 0
